Source: ChEMBL document CHEMBL1129062

Test system: MCF7
procedure details: Tested against […] breast carcinoma (doxorubicin resistant) cell line in the sulforhodamine B assay.
Type: functional, cell-based
details: Homo sapiens
pIC50: −log10 of the molar value.
Outcome: criterion met for pIC50 of at least 7; criterion not met for anything lower.

CCOc1ccc2c3c(c4ccccc4cc13)C(=O)N(CCN(C)C)C2=O    criterion met
CCCOc1ccc2c3c(c4ccccc4cc13)C(=O)N(CCN(C)C)C2=O    criterion not met

Prompt: Could you tell me if the measured pIC50 of COc1c2ccccc2c2c3c(cccc13)C(=O)N(CCN(C)C)C2=O reaches 7 or more?
Response: criterion not met

----------
Species: Rattus norvegicus
procedure details: Cardiotoxicity by a neonatal rat heart myocyte assay
Assay type: toxicity
endpoint: IC50 (µM)
// note: answer is a bare numeric in µM

CN(C)CCN1C(=O)c2ccc(S(C)(=O)=O)c3cc4ccccc4c(c23)C1=O    2.31

Prompt: Look at this molecule and give its reported IC50. COc1c2ccccc2c2c3c(cccc13)C(=O)N(CCN(C)C)C2=O
Response: 26

Prompt: Query COc1cccc2c1C(=O)c1c(O)c3c(c(O)c1C2=O)C[C@@](O)(C(=O)CO)C[C@@H]3O[C@H]1C[C@H](N)[C@H](O)[C@H](C)O1 next
Response: 10.2

Prompt: Query CN(C)CCNc1ccc2c3c(c4cccc(Cl)c4cc13)C(=O)N(CCN(C)C)C2=O next
Response: 3.23

----------
System: L1210
procedure details: Inhibitory activity against sensitive L1210 cell lines
Type: functional, cell-based
details: Mus musculus
Mark each entry Satisfied if its IC50 sits below 5 nM, and Not satisfied for all others.

Look over these answered cases.
COc1ccc2c3c(c4ccccc4cc13)C(=O)N(CCN(C)C)C2=O    Satisfied
CN(C)CCN1C(=O)c2cccc3c(Cl)c4ccccc4c(c23)C1=O    Not satisfied
CCc1ccc2c3c(c4ccccc4cc13)C(=O)N(CCN(C)C)C2=O    Not satisfied
CN(C)CCN1C(=O)c2cccc3c(N)c4ccccc4c(c23)C1=O    Not satisfied
CN(C)CCOc1ccc2c3c(c4ccccc4cc13)C(=O)N(CCN(C)C)C2=O    Satisfied
O=C1c2c(O)ccc(O)c2C(=O)c2c(NCCNCCO)ccc(NCCNCCO)c21 [MITOXANTRONE]    Not satisfied
CN(C)CCNc1ccc2c3c(c4ccccc4cc13)C(=O)N(CCN(C)C)C2=O    Satisfied
CN(C)CCN1C(=O)c2ccc(Cl)c3cc4ccccc4c(c23)C1=O    Not satisfied

Please turn your attention to the following entry.
Prompt: Below 5 nM on IC50? Entry CCOc1ccc2c3c(c4ccccc4cc13)C(=O)N(CCN(C)C)C2=O
Response: Not satisfied

----------
Organism: Rattus norvegicus
procedure details: Cardiotoxicity by a neonatal rat heart myocyte assay
Format: toxicity
endpoint: Activity
I'd appreciate a reply containing only the number, no unit.

Prompt: Look at this compound and give its reported Activity. CN(C)CCN1C(=O)c2ccc(N(C)C)c3cc4ccccc4c(c23)C1=O
Response: 46600

----------
Species on record: Rattus norvegicus
procedure details: Cardiotoxicity by a neonatal rat heart myocyte assay
Format: toxicity
// reported pIC50 per item
# pIC50: negative log10 of molar concentration; output just the value

Solved entries (count: 5):
CNCCN1C(=O)c2ccc(OC)c3cc4ccccc4c(c23)C1=O    5.09
CCOc1c2ccccc2c2c3c(cccc13)C(=O)N(CCN(C)C)C2=O    5.28
CC(=O)Nc1ccc2c3c(c4ccccc4cc13)C(=O)N(CCN(C)C)C2=O    4.89
CN(C)CCOc1ccc2c3c(c4ccccc4cc13)C(=O)N(CCN(C)C)C2=O    5.26
CN(C)CCN1C(=O)c2cccc3cc4ccccc4c(c23)C1=O [AZONAFIDE]    5.70

Prompt: Look at this molecule and give its reported pIC50. CN(C)CCNc1ccc2c3c(c4ccccc4cc13)C(=O)N(CCN(C)C)C2=O
Response: 5.38

Prompt: Query CN(C)CCN1C(=O)c2ccc(NCCO)c3cc4ccccc4c(c23)C1=O next
Response: 5.92

Prompt: Query O=C1c2c(O)ccc(O)c2C(=O)c2c(NCCNCCO)ccc(NCCNCCO)c21 next
Response: 5.11

Prompt: Query CCCOc1ccc2c3c(c4ccccc4cc13)C(=O)N(CCN(C)C)C2=O next
Response: 5.11

Prompt: Query CCc1ccc2c3c(c4ccccc4cc13)C(=O)N(CCN(C)C)C2=O next
Response: 5.11

Prompt: Query CN(C)CCN1C(=O)c2ccc(Cl)c3cc4ccccc4c(c23)C1=O next
Response: 5.39

Prompt: Query CN(C)CCN1C(=O)c2ccc(N)c3cc4ccccc4c(c23)C1=O next
Response: 5.83

Prompt: Query Cc1c2ccccc2c2c3c(cccc13)C(=O)N(CCN(C)C)C2=O next
Response: 5.77

Prompt: Query CNCCN1C(=O)c2ccc(Cl)c3cc4ccccc4c(c23)C1=O next
Response: 5.12

Prompt: Query COc1ccc2c3c(c4ccccc4cc13)C(=O)N(CCN(C)C)C2=O next
Response: 6.10

Prompt: Query CN(C)CCN1C(=O)c2cccc3c(N)c4ccccc4c(c23)C1=O next
Response: 5.71

Prompt: Query CN(C)CCNc1c2ccccc2c2c3c(cccc13)C(=O)N(CCN(C)C)C2=O next
Response: 3.54

Prompt: Query CN(C)CCN1C(=O)c2cccc3c(Cl)c4ccccc4c(c23)C1=O next
Response: 4.97

----------
System: L1210
procedure details: Inhibitory activity against sensitive L1210 cell lines
Format: functional, cell-based
details: Mus musculus
// reported IC50 per item
// note: answer is a bare numeric in µM

CC(=O)Nc1ccc2c3c(c4ccccc4cc13)C(=O)N(CCN(C)C)C2=O    0.486
CCOc1c2ccccc2c2c3c(cccc13)C(=O)N(CCN(C)C)C2=O    0.063
COc1c2ccccc2c2c3c(cccc13)C(=O)N(CCN(C)C)C2=O    0.117
CNCCN1C(=O)c2ccc(OC)c3cc4ccccc4c(c23)C1=O    0.041

Prompt: Look at this molecule and give its reported IC50. CN(C)CCN1C(=O)c2ccc(I)c3cc4ccccc4c(c23)C1=O
Response: 0.416

Prompt: Query CCCOc1ccc2c3c(c4ccccc4cc13)C(=O)N(CCN(C)C)C2=O next
Response: 0.017

Prompt: Query CN(C)CCNc1ccc2c3c(c4cccc(Cl)c4cc13)C(=O)N(CCN(C)C)C2=O next
Response: 0.0029

Prompt: Query CN(C)CCN1C(=O)c2ccc(NCCO)c3cc4ccccc4c(c23)C1=O next
Response: 0.006

Prompt: Query CSc1c2ccccc2c2c3c(cccc13)C(=O)N(CCN(C)C)C2=O next
Response: 6.25

----------
// reported pIC50 per item
System: A549
procedure details: Compound was tested against A549 lung carcinoma cell line in the sulforhodamine B assay.
Format: functional, cell-based
details: Homo sapiens
# pIC50: negative log10 of molar concentration; output just the value

CN(C)CCN1C(=O)c2ccc(I)c3cc4ccccc4c(c23)C1=O    8.00

Turning to the following compound.
Prompt: Hi! What's the reported pIC50 for CN(C)CCN1C(=O)c2ccc(Cl)c3cc4ccccc4c(c23)C1=O on A549?
Response: 7.72

----------
Test system: A549
procedure details: Compound was tested against A549 lung cancer cell line in the sulforhodamine B assay.
Format: functional, cell-based
details: Homo sapiens
endpoint: IC50 (nM)
// note: answer is a bare numeric in nM

Prompt: Look at this compound and give its reported IC50. CN(C)CCN1C(=O)c2cccc3cc4ccccc4c(c23)C1=O [AZONAFIDE]
Response: 10

----------
Organism: Rattus norvegicus
procedure details: Cardiotoxicity by a neonatal rat heart myocyte assay
Format: toxicity
// reported IC50 per item

Solved entries (count: 2):
CN(C)CCN1C(=O)c2ccc(O)c3cc4ccccc4c(c23)C1=O    > 24.1 µM
CSc1c2ccccc2c2c3c(cccc13)C(=O)N(CCN(C)C)C2=O    > 50 µM

Turning to the following compound.
Prompt: Look at this compound and give its reported IC50. CN(C)CCN1C(=O)c2ccc(Cl)c3cc4c(Cl)cccc4c(c23)C1=O
Response: > 23.6 µM

----------
Test system: L1210
procedure details: Inhibitory activity against sensitive L1210 cell lines
Assay type: functional, cell-based
details: Mus musculus
Mark each entry Y if its IC50 sits below 30 nM, and N for all others.

CCSc1ccc2c3c(c4ccccc4cc13)C(=O)N(CCN(C)C)C2=O    Y

Prompt: Below 30 nM on IC50? Entry CSc1ccc2c3c(c4ccccc4cc13)C(=O)N(CCN(C)C)C2=O
Response: Y

Prompt: Query Cc1c2ccccc2c2c3c(cccc13)C(=O)N(CCN(C)C)C2=O next
Response: N

Prompt: Query CN(C)CCN1C(=O)c2cccc3c(O)c4ccccc4c(c23)C1=O next
Response: N

----------
// reported IC50 per item
Tested on: L1210
procedure details: Inhibitory activity against sensitive L1210 cell lines
Format: functional, cell-based
details: Mus musculus
// note: answer is a bare numeric in nM

Solved entries (count: 5):
CNCCN1C(=O)c2ccc(Cl)c3cc4ccccc4c(c23)C1=O    53
CN(C)CCN1C(=O)c2ccc(N(C)C)c3cc4ccccc4c(c23)C1=O    23
CN(C)CCN1C(=O)c2ccc(Cl)c3cc4c(Cl)cccc4c(c23)C1=O    472
CN(C)CCN1C(=O)c2ccc(S(C)(=O)=O)c3cc4ccccc4c(c23)C1=O    35
CN(C)CCNc1c2ccccc2c2c3c(cccc13)C(=O)N(CCN(C)C)C2=O    524

Prompt: Look at this compound and give its reported IC50. Cc1ccc2c3c(c4ccccc4cc13)C(=O)N(CCN(C)C)C2=O
Response: 6.8

Prompt: Query CN(C)CCN1C(=O)c2cccc3cc4ccccc4c(c23)C1=O [AZONAFIDE] next
Response: 7

Prompt: Query CN(C)CCN1C(=O)c2ccc(O)c3cc4ccccc4c(c23)C1=O next
Response: 217

Prompt: Query CC(=O)Nc1c2ccccc2c2c3c(cccc13)C(=O)N(CCN(C)C)C2=O next
Response: 487
